- TEST_TARGET: HDAC6 (Homo sapiens)
- Sequence (Q9UBN7 whole entry): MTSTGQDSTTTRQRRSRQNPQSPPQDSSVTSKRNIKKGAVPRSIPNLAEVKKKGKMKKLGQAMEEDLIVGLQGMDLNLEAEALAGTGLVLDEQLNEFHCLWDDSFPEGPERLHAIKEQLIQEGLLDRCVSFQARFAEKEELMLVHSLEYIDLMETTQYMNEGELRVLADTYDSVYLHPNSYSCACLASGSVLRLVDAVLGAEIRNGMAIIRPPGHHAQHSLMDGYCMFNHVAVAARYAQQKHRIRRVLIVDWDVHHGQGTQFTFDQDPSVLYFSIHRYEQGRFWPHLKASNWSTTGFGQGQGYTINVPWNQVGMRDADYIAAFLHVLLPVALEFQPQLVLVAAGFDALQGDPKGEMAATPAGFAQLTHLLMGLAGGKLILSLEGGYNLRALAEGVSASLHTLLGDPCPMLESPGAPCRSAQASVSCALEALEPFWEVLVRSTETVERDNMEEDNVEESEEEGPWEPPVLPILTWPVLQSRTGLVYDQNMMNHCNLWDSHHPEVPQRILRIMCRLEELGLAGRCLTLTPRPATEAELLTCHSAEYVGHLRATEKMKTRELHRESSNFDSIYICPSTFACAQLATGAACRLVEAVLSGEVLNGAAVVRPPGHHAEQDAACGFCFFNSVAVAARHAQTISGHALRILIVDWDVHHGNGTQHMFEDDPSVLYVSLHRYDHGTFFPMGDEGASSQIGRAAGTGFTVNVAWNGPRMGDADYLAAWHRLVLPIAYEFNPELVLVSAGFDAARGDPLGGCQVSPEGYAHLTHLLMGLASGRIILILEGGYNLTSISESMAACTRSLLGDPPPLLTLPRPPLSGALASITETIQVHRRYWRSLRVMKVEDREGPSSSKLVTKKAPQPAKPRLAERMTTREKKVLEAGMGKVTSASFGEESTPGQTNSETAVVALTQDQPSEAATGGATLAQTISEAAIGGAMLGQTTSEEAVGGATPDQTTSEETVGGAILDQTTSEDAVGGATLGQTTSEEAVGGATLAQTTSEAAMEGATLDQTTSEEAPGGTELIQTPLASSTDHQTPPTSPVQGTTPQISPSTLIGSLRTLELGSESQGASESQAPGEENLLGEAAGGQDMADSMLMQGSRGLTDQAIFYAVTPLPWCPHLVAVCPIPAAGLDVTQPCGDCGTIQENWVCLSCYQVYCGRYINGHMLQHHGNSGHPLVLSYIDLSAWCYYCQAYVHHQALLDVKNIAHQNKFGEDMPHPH
- RUN_DESCRIPTION: Human HDAC enzyme inhibitor Fluor-de-Lys assay, HDAC6
- Format: biochemical
- REPORTED_CONDITIONS: HDAC6, Fluor-de-Lys assay
// IC50 lookup, one value per entry
MEASUREMENT_KIND: IC50 (µM)

- COMPOUND: "CCC(=O)CCCCC[C@H](NC(=O)C1=NOC2(CCN(C)CC2)C1)c1nnc(-c2cc3ccccc3nc2OC)o1 [Compound 370]"
  MEASUREMENT_KIND: "IC50"
  RESULT_QUALIFIER: "="
  VALUE: 1.74
- COMPOUND: "CCC(=O)CCCCC[C@H](NC(=O)[C@H]1CC12CCN(C)CC2)c1ncc(-c2ccc(C)nc2OC)[nH]1 [Compound 268]"
  MEASUREMENT_KIND: "IC50"
  RESULT_QUALIFIER: "="
  VALUE: 1.78
- COMPOUND: "CCC(=O)CCCCC[C@H](NC(=O)C1CC12CCNCC2)c1nnc(-c2cc3ccccc3nc2OC)o1 (some centres unmarked) [Compound 303]"
  MEASUREMENT_KIND: "IC50"
  RESULT_QUALIFIER: "="
  VALUE: 0.982
- COMPOUND: "CCC(=O)CCCCC[C@H](NC(=O)C1CCC2(CC1)CNC2)c1nnc(-c2cc3ccccc3nc2OC)o1 [Compound 299]"
  MEASUREMENT_KIND: "IC50"
  RESULT_QUALIFIER: "="
  VALUE: 2.36
- COMPOUND: "CCC(=O)CCCCC[C@H](NC(=O)C1=NOC2(CCN(C)CC2)C1)c1ncc(-c2cc3ccc(C)nc3cc2F)[nH]1 [Compound 232]"
  MEASUREMENT_KIND: "IC50"
  RESULT_QUALIFIER: ">"
  VALUE: 0.9
- COMPOUND: "CCC(=O)CCCCC[C@H](NC(=O)[C@H]1CC12CCN(C(N)=O)CC2)c1ncc(-c2cc3ccccc3nc2OC)[nH]1 (single isomer, unassigned) [Compound 319]"
  MEASUREMENT_KIND: "IC50"
  RESULT_QUALIFIER: "="
  VALUE: 1.17
- COMPOUND: "CCC(=O)CCCCC[C@H](NC(=O)[C@H]1CC12CCCN(C)C2)c1ncc(-c2cc3ccccc3nc2OC)[nH]1 (some centres unmarked) [Compound 286]"
  MEASUREMENT_KIND: "IC50"
  RESULT_QUALIFIER: "="
  VALUE: 0.342
- COMPOUND: "CCC(=O)CCCCC[C@H](NC(=O)[C@H]1CC[C@]2(CC1)OC(=O)c1cccnc12)c1nnc(-c2cc3ccccc3nc2OC)o1 [Compound 368]"
  MEASUREMENT_KIND: "IC50"
  RESULT_QUALIFIER: "="
  VALUE: 2.38
- COMPOUND: "CCC(=O)CCCCC[C@H](NC(=O)[C@H]1CC[C@@]2(CC1)OC(=O)c1cccnc12)c1nnc(-c2cc3ccccc3nc2OC)o1 [Compound 366]"
  MEASUREMENT_KIND: "IC50"
  RESULT_QUALIFIER: "="
  VALUE: 2.76
- COMPOUND: "CCC(=O)CCCCC[C@H](NC(=O)[C@H]1CC12CCN(CCC(F)(F)F)CC2)c1ncc(-c2cc3ccccc3nc2OC)[nH]1 [Compound 332]"
  MEASUREMENT_KIND: "IC50"
  RESULT_QUALIFIER: "="
  VALUE: 0.745
- COMPOUND: "CCC(=O)CCCCC[C@H](NC(=O)C1=NOC2(CCN(C)CC2)C1)c1ncc(-c2cc3cccnc3cc2OC)o1 [Compound 223]"
  MEASUREMENT_KIND: "IC50"
  RESULT_QUALIFIER: "="
  VALUE: 0.237
- COMPOUND: "CCC(=O)CCCCC[C@H](NC(=O)[C@H]1CC12CCN(C)CC2)c1ncc(-c2ccc3ccc(C)nc3c2F)[nH]1 [Compound 354]"
  MEASUREMENT_KIND: "IC50"
  RESULT_QUALIFIER: "="
  VALUE: 0.354
- COMPOUND: "CCC(=O)CCCCC[C@H](NC(=O)[C@H]1CCC12CCN(CC)CC2)c1ncc(-c2cc3ccccc3nc2OC)[nH]1 [Compound 338]"
  MEASUREMENT_KIND: "IC50"
  RESULT_QUALIFIER: "="
  VALUE: 0.405
- COMPOUND: "CCOc1ncc(-c2cnc([C@H](CCCCCC(=O)CC)NC(=O)[C@H]3CC34CCN(C)CC4)[nH]2)cn1 [Compound 266]"
  MEASUREMENT_KIND: "IC50"
  RESULT_QUALIFIER: "="
  VALUE: 42.5
- COMPOUND: "CCC(=O)CCCCC[C@H](NC(=O)C1=NOC2(CCN(C(C)C)CC2)C1)c1ncc(-c2ccccc2)[nH]1 [Compound 379]"
  MEASUREMENT_KIND: "IC50"
  RESULT_QUALIFIER: "="
  VALUE: 8.59
- COMPOUND: "CCC(=O)CCCCC[C@H](NC(=O)[C@H]1CC[C@]2(CC1)OC(=O)c1cccnc12)c1ncc(-c2ccccc2)[nH]1 [Compound 378]"
  MEASUREMENT_KIND: "IC50"
  RESULT_QUALIFIER: "="
  VALUE: 10.8
- COMPOUND: "CCC(=O)CCCCC[C@H](NC(=O)[C@H]1CC[C@@]2(CC1)OC(=O)c1cccnc12)c1ncc(-c2ccccc2)[nH]1 [Compound 375]"
  MEASUREMENT_KIND: "IC50"
  RESULT_QUALIFIER: "="
  VALUE: 10.2
